Assay type: physicochemical
test-settings: HPLC on reversed phase columns, method [a]: pH 2.7, 0.1% formic acid in water / acetonitrile, linear gradient 10% to 95% acetonitrile
metric-name: log P

Example cases with answers are listed next.
| molecule | metric-name | observed |
| --- | --- | --- |
| C#Cc1cnc2ccc(C3=NOC(C)(C(=O)NCC(F)F)C3)cc2c1 (centres unmarked) | log P | 2.26[a] |
| C#Cc1cnc2ccc(C3=NOC(C)(C(=O)NC(C)c4sc(C)nc4C)C3)cc2c1 (centres unmarked) | log P | 2.20[a] |
| CC1(C(=O)NCc2ccc3ncsc3c2)CC(c2ccc3ncc(Br)cc3c2)=NO1 (centres unmarked) | log P | 2.7^[a] |
| CC(NC(=O)C1(C)CC(c2ccc3ncc(Br)cc3c2)=NO1)c1ccccc1 (centres unmarked) | log P | 3.46[a] |

Exercise: State the recorded log P for this entry: CC1(C(=O)NC(C#N)c2ccccc2)CC(c2ccc3ncc(Br)cc3c2)=NO1 (centres unmarked)
Solution: 3.25[a]

----------
Format: physicochemical
test-settings: HPLC on reversed phase columns, method [a]: pH 2.7, 0.1% formic acid in water and acetonitrile, linear gradient 10% to 95% acetonitrile
# log P listing for each entry below

| compound | metric-name | observed |
| --- | --- | --- |
| CC1(C(=O)NCCC2CC2)CC(c2ccc3ncc(Br)cc3c2)=NO1 (centres unmarked) [compound 710] | log P | 3.17[a] |
| CC1(C(=O)NCc2ccc(O)nc2)CC(c2ccc3ncc(Br)cc3c2)=NO1 (centres unmarked) [compound 807] | log P | 1.72[a] |
| C#Cc1cnc2ccc(C3=NOC(C=C)(C(=O)NCC4COC(C)(C)O4)C3)cc2c1 (centres unmarked) [compound 725] | log P | 2.66[a] |
| CC1(C(=O)N/C(=N/O)c2cccnc2)CC(c2ccc3ncc(Br)cc3c2)=NO1 (centres unmarked) [compound 741] | log P | 2.10[a] |
| C#Cc1cnc2ccc(C3=NOC(C)(C(=O)NCc4cccnc4F)C3)cc2c1 (centres unmarked) [compound 783] | log P | 2.23[a] |

Exercise: State the recorded log P for this entry: CCn1cc(CNC(=O)C2(C)CC(c3ccc4ncc(Br)c(Cl)c4c3)=NO2)c(C)n1 (centres unmarked) [compound 735]
Solution: 2.69[a]

Exercise: State the recorded log P for this entry: C#Cc1cnc2ccc(C3=NOC(OC)(C(=O)NCc4cn(CC)nc4Cl)C3)cc2c1 (centres unmarked) [compound 705]
Solution: 2.51[a]

Exercise: State the recorded log P for this entry: CC(NNC(=O)C1(C)CC(c2ccc3ncc(Br)cc3c2)=NO1)C1CC1 (centres unmarked) [compound 767]
Solution: 2.51[a]

----------
# log P listing for each entry below
Type: physicochemical
test-settings: method [a]: HPLC/LC-MS on reversed phase at pH 2.7, 0.1% formic acid in water / acetonitrile, gradient 10% to 95% acetonitrile

Exercise: State the recorded log P for this entry: CCOC1(C(=O)NC(C)C)CC(c2ccc3ncc(Br)cc3c2)=NO1 (stereo not drawn)
Solution: 2.98[a]

Exercise: State the recorded log P for this entry: C#Cc1cnc2ccc(C3=NOC(C)(C(=O)Nc4cnn(C)c4)C3)cc2c1 (stereo not drawn)
Solution: 1.98[a]

Exercise: State the recorded log P for this entry: CC#Cc1cnc2ccc(C3=NOC(C)(C(=O)NCc4cn(CC)nc4C)C3)cc2c1 (racemic)
Solution: 2.35[a]

Exercise: State the recorded log P for this entry: CCn1cc(CNC(=O)C23CC2C(c2ccc4ncc(Br)cc4c2)=NO3)c(C)n1 (racemic)
Solution: 2.44[a]

Exercise: State the recorded log P for this entry: COC(=O)CC1(C(=O)NC(C)C)CC(c2ccc3ncc(Br)cc3c2)=NO1 (racemic)
Solution: 2.66[a]

Exercise: State the recorded log P for this entry: C#Cc1cnc2ccc(C3=NOC(C)(C(=S)NCc4cnn(C)c4C)C3)cc2c1 (racemic)
Solution: 2.76[a]

Exercise: State the recorded log P for this entry: C#Cc1cnc2ccc(C3=NOC(OC)(C(=O)N4CCCCO4)C3)cc2c1 (racemic)
Solution: 2.41[a]

Exercise: State the recorded log P for this entry: C#Cc1cnc2ccc(C3=NOC(OC)(C(=O)N(O)C(C)C)C3)cc2c1 (stereo not drawn)
Solution: 2.08[a]

Exercise: State the recorded log P for this entry: Cn1cc(NC(=O)C2(C)CC(c3ccc4ncc(Br)cc4c3)=NO2)cn1 (racemic)
Solution: 2.17[a]

Exercise: State the recorded log P for this entry: CCn1cc(CNC(=O)C2(OC)CC(c3ccc4ncc(I)cc4c3)=NO2)c(C)n1 (racemic)
Solution: 2.44[a]

Exercise: State the recorded log P for this entry: CC1CCCC(C)C1NC(=O)C1(C)CC(c2ccc3ncc(Br)cc3c2)=NO1 (racemic)
Solution: 4.29[a]

Exercise: State the recorded log P for this entry: C#Cc1cnc2ccc(C3=NOC(CC)(C(=O)NC(C)C)C3)cc2c1 (racemic)
Solution: 2.76[a]

Exercise: State the recorded log P for this entry: CC(C)NC(=O)C1(C)CC(c2ccc3ncc(C(F)(F)F)cc3c2)=NO1 (racemic)
Solution: 2.90[a]

----------
System: Septoria tritici
assay-name: In vivo preventive test on Septoria tritici (leaf spot on wheat)
test-settings: 500 ppm; wheat plants sprayed 24 hours before contamination; grading 21 to 28 days after contamination vs control plants
# % of efficacy (protection) listing for each entry below
I only need the number, in %, no unit after it.

Example cases with answers are listed next.
| molecule | system-name | unit-label | % of efficacy (protection) |
| --- | --- | --- | --- |
| CCn1cc(CNC(=O)C2(CCl)CC(c3ccc4ncc(Br)cc4c3)=NO2)c(C)n1 (centres unmarked) | Septoria tritici | % | 93 |
| C#Cc1cnc2ccc(C3=NOC(C)(C(=O)NCc4cnn(CC)c4CC)C3)cc2c1 (centres unmarked) | Septoria tritici | % | 100 |
| CCOCCCNC(=O)C1(OC)CC(c2cc(C)c3ncc(Br)cc3c2)=NO1 (centres unmarked) | Septoria tritici | % | 100 |

Exercise: Please provide the recorded % of efficacy (protection) for C#Cc1cnc2ccc(C3=NOC(OC)(C(=O)N(O)C(C)C)C3)cc2c1 (centres unmarked) , tested on Septoria tritici.
Solution: 83

Exercise: Please provide the recorded % of efficacy (protection) for C#Cc1cnc2ccc(C3=NOC(CC)(C(=O)NC4CC4)C3)cc2c1 (racemic) , tested on Septoria tritici.
Solution: 93

Exercise: Please provide the recorded % of efficacy (protection) for C#Cc1cnc2ccc(C3=NOC(OC)(C(=O)N4CCCCO4)C3)cc2c1 (racemic) , tested on Septoria tritici.
Solution: 88

Exercise: Please provide the recorded % of efficacy (protection) for C#Cc1cnc2ccc(C3=NOC(C)(C(=O)NCc4ccsc4)C3)cc2c1 (centres unmarked) , tested on Septoria tritici.
Solution: 97

Exercise: Please provide the recorded % of efficacy (protection) for C#Cc1cnc2ccc(C3=NOC(C)(C(=O)NCc4c(C)nn(C)c4C)C3)cc2c1 (centres unmarked) , tested on Septoria tritici.
Solution: 86

----------
Tested on: Septoria tritici
assay-name: In vivo preventive test on Septoria tritici (leaf spot on wheat)
test-settings: 500 ppm; wheat plants sprayed 24 hours before contamination; grading 21 to 28 days after contamination vs control plants
metric-name: % of efficacy (protection)

Example cases with answers are listed next.
| compound | system-name | % of efficacy (protection) |
| --- | --- | --- |
| C#Cc1cnc2ccc(C3=NOC(OC)(C(=O)NC4CC4)C3)cc2c1 (stereo not drawn) [compound 504] | Septoria tritici | 100% |
| C#Cc1cnc2ccc(C3=NOC(C)(C(=O)NCc4ccc(Cl)cc4Cl)C3)cc2c1 (stereo not drawn) [compound 198] | Septoria tritici | 86% |
| C#Cc1cnc2ccc(C3=NOC(C)(C(=O)Nc4cn(CC)nc4C)C3)cc2c1 (stereo not drawn) [compound 529] | Septoria tritici | 100% |

Exercise: State the recorded % of efficacy (protection) for this entry: C#Cc1cnc2ccc(C3=NOC(C)(C(=O)NC(C)c4ccc(Cl)nc4)C3)cc2c1 (stereo not drawn) [compound 525]
Solution: 93%

Exercise: State the recorded % of efficacy (protection) for this entry: CCOCCCNC(=O)C1(C(C)C)CC(c2ccc3ncc(Br)cc3c2)=NO1 (stereo not drawn) [compound 64]
Solution: 70%

----------
# % of efficacy (protection) listing for each entry below
Test system: Septoria tritici
assay-name: In vivo preventive test on Septoria tritici (leaf spot on wheat)
test-settings: 500 ppm; wheat plants sprayed 24 hours before contamination; grading 21 to 28 days after contamination vs control plants
Description: Wheat plants (“Scipion” variety), sown in starter cups on a 50/50 peat soil-pozzolana substrate and grown at 22° C. (12 h)/20° C. (12 h), are treated at the 1-leaf stage (10 cm height) by spraying with the active ingredient prepared as described above. Plants, used as controls, are treated with the mixture of acetone/tween/DMSO/water not containing the active material. […]
I only need the number, in %, no unit after it.

Example cases with answers are listed next.
| compound | unit-label | observed |
| --- | --- | --- |
| CCC1(C(=O)NC(C)C)CC(c2ccc3ncc(Br)cc3c2)=NO1 (centres unmarked) | % | 100 |
| CCc1cnc2ccc(C3=NOC(C)(C(=O)NC(C)C)C3)cc2c1 (centres unmarked) | % | 100 |
| C#CCONC(=O)C1(C)CC(c2ccc3ncc(Br)cc3c2)=NO1 (centres unmarked) | % | 78 |
| CC(C)NC(=O)C1(C2CC2)CC(c2ccc3ncc(Br)cc3c2)=NO1 (centres unmarked) | % | 93 |
| C#Cc1cnc2ccc(C3=NOC(C)(C(=O)NC(C)c4ccccc4Cl)C3)cc2c1 (centres unmarked) | % | 94 |

Alright, here's another compound for you.
Exercise: State the recorded % of efficacy (protection) for this entry: CCn1cc(CNC(=O)C2(C(F)(F)F)CC(c3ccc4ncc(Br)cc4c3)=NO2)c(C)n1 (centres unmarked)
Solution: 97
